# MEASURED TARGET: T1, Mouse ALK2-His&Fc (Sino Biological Inc., Cat. #50297-M03H) (mouse, UniProt P37172 21-123)
# T1 construct: Bought product; also called mALK2-Fc; not shown: His tag and Fc of the bought product
# T1 sequence: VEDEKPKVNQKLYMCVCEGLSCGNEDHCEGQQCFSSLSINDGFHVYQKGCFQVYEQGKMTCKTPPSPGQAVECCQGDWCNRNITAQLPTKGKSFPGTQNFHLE
# ASSAY METHOD TEXT: ELISA, antigen coated at 1 µg/ml, hybridoma culture supernatant, ALP anti-rat IgG, O.D.492
READOUT NAME: binding result

rat anti-ALK2 monoclonal antibody A2-27D (antibody, V domains shown, Rat monoclonal IgG from a hybridoma; also called 27D11) VH: EVQLVESGGGLVQPGRSLKLSCLASGSTFSNYGMKWIRQAPGKGLEWVASISRSSTYIYYADTVKGRFTISRDNARNTLYLQMTSLRSEDTALYYCAAAISTPFYWYFDFWGPGTVVTVSS VL: EIVLTQSPTTMAASPGEKVTLNCLASSSVSYMTWYQQKSGASPKLWIYGTSNLASGVPNRFSGSGSGTSYSLAISSMEAEDVATYYCLHLTSYPPYTFGAGTKLELKR	binds
rat anti-ALK2 monoclonal antibody A2-25C (antibody, V domains shown, Rat monoclonal IgG from a hybridoma; also called 25C11) VH: EVQLVESGGGLVQPGGSLKLSCAASGFTFSYYAMSWVCQAPTKGLEWVASISRGGDNTYYRDTVKGRFTTSRDNAKNTLYLQMDSLRSEDTATYYCARLNYNNYFDYWGQGVMVTVSS VL: DIQMTQSPASLSASLEEIVTITCQASQDIGNWLSWYQQKPGKSPQLLIYGATSLADGVPSRFSGSRSGTQYSLKISRLRVEDIGIYYCLQAYSAPFTFGSGTKLEIKR	binds
rat anti-ALK2 monoclonal antibody A2-15A (antibody, V domains shown, Rat monoclonal IgG from a hybridoma; also called 15A6) VH: EVQLVESGGGLVQPGRSLKLSCAASGFTFSHYYMAWVRQAPTKGLEWVASITNSGGSINYRDSVKGRFTISRDNAKSTLYLQMDSLRSEDTATYYCTREGGENYGGYPPFAYWGQGTLVTVSS VL: DIVLTQSPALAVSLGQRATISCRANQGVSLSRYNLMHWYQQKPGQKPKLLIYRSSNLASGIPARFSGSGSGTDFTLTINPVQADDIATYYCQQSRESPFTFGAGTKLELKR	binds
rat anti-ALK2 monoclonal antibody A2-11E (antibody, V domains shown, Rat monoclonal IgG from a hybridoma; also called 11E2) VH: EVQLVETGGGLVQPGRSLKLSCVASGFTFSNYYMYWIRQAPGKGLEWISSINTDGGSTYYPDSVKGRFAISRDNAENTVYLQMNSLRSEDTATYYCAKSTPNIPLAYWGQGTLVTVSS VL: DIQMTQSPSLLSASVGDRVTLSCKASQNIYKYLNWFQQKLGEAPKLLIYYSNSLQTGIPSRFSGSGSGTDFTLTISSLQPEDVAIYFCFQYSSGPTFGPGTKLELKR	binds
